Assignment: determine reported binding signal for the given sequences.
# Target Desc: PUM1 PUF domain R5-LWS (Homo sapiens, UniProt Q14671 828-1176, C1007L;R1008W;Q1011S)
# Sequence (Q14671 828-1176 C1007L/R1008W/Q1011S): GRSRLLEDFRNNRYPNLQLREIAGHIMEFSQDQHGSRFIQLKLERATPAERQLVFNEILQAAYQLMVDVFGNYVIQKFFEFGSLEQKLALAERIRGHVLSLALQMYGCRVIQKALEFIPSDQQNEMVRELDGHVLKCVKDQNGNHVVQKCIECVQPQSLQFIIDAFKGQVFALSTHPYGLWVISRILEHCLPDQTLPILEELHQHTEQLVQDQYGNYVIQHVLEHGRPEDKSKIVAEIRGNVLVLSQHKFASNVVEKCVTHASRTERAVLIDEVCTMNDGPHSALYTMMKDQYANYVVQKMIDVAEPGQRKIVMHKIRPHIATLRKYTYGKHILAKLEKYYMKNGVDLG
# Protocol Details: yeast three-hybrid, YBZ-1, SC-Leu-His + 0.5 mM 3-AT, 4 days
# Experimental Conditions: tags: N-Gal4 AD-HA kept; label: inside an RPR1-promoter hybrid RNA with tandem MS2 sites; ssRNA

Recorded binding signal, per entry:
The recorded binding signal for "GGCUAGAACUAGUGGAUCCCCCGGCGCCCGGCGGCUCGAGCCCGGGUAAGUGUAAAUAGUCUGCAUGCCGCCGGGCGCCAUGCCUGCAGGUCGACUCUAGAAAACAUG" is 2.04 log2 enrichment (interaction score)

So for "GGCUAGAACUAGUGGAUCCCCCGGCGCCCGGCGGCUCGAGCCCGGGUAAGUGUGAAUAGUCUGCAUGCCGCCGGGCGCCAUGCCUGCAGGUCGACUCUAGAAAACAUG" , the logged binding signal turned out to be 1.62 log2 enrichment (interaction score)

Could you tell me binding signal for each of these sequences? They are listed below.
1. GGCUAGAACUAGUGGAUCCCCCGGCGCCCGGCGGCUCGAGCCCGGGUAAGUGUCAAUAGUCUGCAUGCCGCCGGGCGCCAUGCCUGCAGGUCGACUCUAGAAAACAUG
2. GGCUAGAACUAGUGGAUCCCCCGGCGCCCGGCGGCUCGAGCCCGGGUAAGUGUUAAUAGUCUGCAUGCCGCCGGGCGCCAUGCCUGCAGGUCGACUCUAGAAAACAUG

2.81 log2 enrichment (interaction score)
2.93 log2 enrichment (interaction score)

----------
# Target Desc: PUM1 PUF domain R5-RRS (Homo sapiens, UniProt Q14671 828-1176, C1007R;Q1011S)
# Sequence (Q14671 828-1176 C1007R/Q1011S): as the sequence (Q14671 828-1176 C1007L/R1008W/Q1011S) above, with L180R, W181R counted along it
# Protocol Details: yeast three-hybrid, YBZ-1, SC-Leu-His + 0.5 mM 3-AT, 4 days
# Experimental Conditions: tags: N-Gal4 AD-HA kept; label: inside an RPR1-promoter hybrid RNA with tandem MS2 sites; ssRNA
Assign binding signal to each entry below.

Look over these answered cases.
Reported binding signal for "GGCUAGAACUAGUGGAUCCCCCGGCGCCCGGCGGCUCGAGCCCGGGUAAGUGUGAAUAGUCUGCAUGCCGCCGGGCGCCAUGCCUGCAGGUCGACUCUAGAAAACAUG" was 1.53 log2 enrichment (interaction score)

Consider "GGCUAGAACUAGUGGAUCCCCCGGCGCCCGGCGGCUCGAGCCCGGGUAAGUGUUAAUAGUCUGCAUGCCGCCGGGCGCCAUGCCUGCAGGUCGACUCUAGAAAACAUG" . Its measured binding signal is 4.6 log2 enrichment (interaction score)

Data point: "GGCUAGAACUAGUGGAUCCCCCGGCGCCCGGCGGCUCGAGCCCGGGUAAGUGUCAAUAGUCUGCAUGCCGCCGGGCGCCAUGCCUGCAGGUCGACUCUAGAAAACAUG" ; binding signal = 4.44 log2 enrichment (interaction score)

More entries:
Form: sequence = "GGCUAGAACUAGUGGAUCCCCCGGCGCCCGGCGGCUCGAGCCCGGGUAAGUGUAAAUAGUCUGCAUGCCGCCGGGCGCCAUGCCUGCAGGUCGACUCUAGAAAACAUG" ; binding signal = 2.42 log2 enrichment (interaction score)

----------
Consider the following sequences; for each one, report its binding signal.
# Target Desc: PUM1 PUF domain R4-WGG (Homo sapiens, UniProt Q14671 828-1176, N971W;H972G;Q975G)
# Sequence (Q14671 828-1176 N971W/H972G/Q975G): as the sequence (Q14671 828-1176 C1007L/R1008W/Q1011S) above, with N144W, H145G, Q148G, L180C, W181R, S184Q counted along it
# Protocol Details: yeast three-hybrid, YBZ-1, SC-Leu-His + 0.5 mM 3-AT, 4 days
# Experimental Conditions: tags: N-Gal4 AD-HA kept; label: inside an RPR1-promoter hybrid RNA with tandem MS2 sites; ssRNA

Sample records with binding signal:
Observed binding signal on PUM1 PUF domain R4-WGG (Homo sapiens, UniProt Q14671 828-1176, N971W;H972G;Q975G), entry "GGCUAGAACUAGUGGAUCCCCCGGCGCCCGGCGGCUCGAGCCCGGGUAAGUGUAUAUAGUCUGCAUGCCGCCGGGCGCCAUGCCUGCAGGUCGACUCUAGAAAACAUG" , equals 3.71 log2 enrichment (interaction score)

Measured binding signal (PUM1 PUF domain R4-WGG (Homo sapiens, UniProt Q14671 828-1176, N971W;H972G;Q975G)), entry "GGCUAGAACUAGUGGAUCCCCCGGCGCCCGGCGGCUCGAGCCCGGGUAAGUGUAAAUAGUCUGCAUGCCGCCGGGCGCCAUGCCUGCAGGUCGACUCUAGAAAACAUG" : 2.44 log2 enrichment (interaction score)

I looked up "GGCUAGAACUAGUGGAUCCCCCGGCGCCCGGCGGCUCGAGCCCGGGUAAGUGUAGAUAGUCUGCAUGCCGCCGGGCGCCAUGCCUGCAGGUCGACUCUAGAAAACAUG" and its binding signal for PUM1 PUF domain R4-WGG (Homo sapiens, UniProt Q14671 828-1176, N971W;H972G;Q975G) was 1.6 log2 enrichment (interaction score)

Consider the record given below.
Measured binding signal (PUM1 PUF domain R4-WGG (Homo sapiens, UniProt Q14671 828-1176, N971W;H972G;Q975G)), entry "GGCUAGAACUAGUGGAUCCCCCGGCGCCCGGCGGCUCGAGCCCGGGUAAGUGUACAUAGUCUGCAUGCCGCCGGGCGCCAUGCCUGCAGGUCGACUCUAGAAAACAUG" : 3.3 log2 enrichment (interaction score)
